Assay: Clearance in ICR mouse at 15 mg/kg, iv administered as single dose and measured for 8 hrs by LC-MS/MS analysis
Type: ADME, organism-based
Details: in vivo
measure: clearance (mL/min/kg)
Respond numerically; units are mL/min/kg and should not be typed.

Query `O=C1NCc2c1c1c3cc(O)ccc3[nH]c1c1[nH]c3ccccc3c21` yields clearance of 29.3

###

Assay: MRT (0 to t) in ICR mouse at 15 mg/kg, iv administered as single dose and measured for 8 hrs by LC-MS/MS analysis
Type: ADME, organism-based
Settings: in vivo
measure: MRT last at 8 h (min)
Respond numerically; units are min and should not be typed.

Query `O=C1NCc2c1c1c3cc(O)ccc3[nH]c1c1[nH]c3ccccc3c21` yields MRT last at 8 h of 10.8

###

Assay: Volume of distribution at terminal state in ICR mouse at 15 mg/kg, iv administered as single dose and measured for 8 hrs by LC-MS/MS analysis
Assay type: ADME, organism-based
Conditions: in vivo, read-out: Vz
measure: Vd (L/kg)
Respond numerically; units are L/kg and should not be typed.

Query `O=C1NCc2c1c1c3cc(O)ccc3[nH]c1c1[nH]c3ccccc3c21` yields Vd of 4.87

###

Please provide measured IC50 for the entries that follow.
Target: Rho-associated protein kinase 2 (Homo sapiens, UniProt O75116)
Sequence (O75116 whole entry, the tested form may be a part): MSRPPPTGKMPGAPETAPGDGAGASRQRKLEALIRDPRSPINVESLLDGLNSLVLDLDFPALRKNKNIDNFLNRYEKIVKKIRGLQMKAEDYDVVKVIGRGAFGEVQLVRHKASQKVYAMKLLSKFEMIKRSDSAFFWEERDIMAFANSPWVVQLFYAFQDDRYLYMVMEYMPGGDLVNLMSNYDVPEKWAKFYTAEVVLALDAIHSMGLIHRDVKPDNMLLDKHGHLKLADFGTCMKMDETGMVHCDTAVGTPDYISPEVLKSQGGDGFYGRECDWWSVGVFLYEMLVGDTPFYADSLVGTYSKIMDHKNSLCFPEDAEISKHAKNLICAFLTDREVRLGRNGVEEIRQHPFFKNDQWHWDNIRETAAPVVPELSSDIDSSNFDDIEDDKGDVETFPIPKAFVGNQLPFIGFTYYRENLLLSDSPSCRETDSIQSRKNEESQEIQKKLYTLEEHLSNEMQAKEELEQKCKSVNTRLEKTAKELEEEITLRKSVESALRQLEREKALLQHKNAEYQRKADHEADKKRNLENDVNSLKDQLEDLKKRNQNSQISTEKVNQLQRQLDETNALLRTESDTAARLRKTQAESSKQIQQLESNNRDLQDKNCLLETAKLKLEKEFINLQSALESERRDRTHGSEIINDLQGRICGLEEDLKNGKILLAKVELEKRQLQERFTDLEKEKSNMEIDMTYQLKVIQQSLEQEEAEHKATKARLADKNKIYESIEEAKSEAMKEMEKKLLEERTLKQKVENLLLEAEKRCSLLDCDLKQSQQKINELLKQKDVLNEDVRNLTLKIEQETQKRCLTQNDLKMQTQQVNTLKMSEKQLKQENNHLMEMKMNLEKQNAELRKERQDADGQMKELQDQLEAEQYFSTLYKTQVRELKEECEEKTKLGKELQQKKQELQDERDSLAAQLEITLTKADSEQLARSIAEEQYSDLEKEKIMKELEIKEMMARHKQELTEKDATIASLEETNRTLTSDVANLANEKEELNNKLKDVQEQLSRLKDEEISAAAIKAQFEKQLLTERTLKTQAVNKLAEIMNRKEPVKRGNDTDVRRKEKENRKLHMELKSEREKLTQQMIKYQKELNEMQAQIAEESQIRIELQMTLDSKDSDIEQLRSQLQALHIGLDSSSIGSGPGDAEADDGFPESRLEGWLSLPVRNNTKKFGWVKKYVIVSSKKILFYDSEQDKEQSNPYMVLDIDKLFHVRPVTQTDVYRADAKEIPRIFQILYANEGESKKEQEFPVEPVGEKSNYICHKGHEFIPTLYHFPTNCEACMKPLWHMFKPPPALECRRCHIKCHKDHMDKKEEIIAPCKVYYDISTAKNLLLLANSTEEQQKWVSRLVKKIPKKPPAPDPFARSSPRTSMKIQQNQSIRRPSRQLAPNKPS
Experiment: Inhibition of N-terminal His10-StrepII tagged human ROCK2 catalytic domain (1 to 553 residues) expressed in Sf9 insect cells by HTRF assay

Query CN[C@@H]1C[C@H]2O[C@@](C)([C@@H]1OC)n1c3ccccc3c3c4c(c5c6ccccc6n2c5c31)C(=O)NC4=O (stereo in doubt; 14) yields IC50 of 310 nM

Query `CN[C@]1(C(=O)OC)C[C@H]2O[C@]1(C)n1c3ccccc3c3c4c(c5c6ccccc6n2c5c31)C(=O)NC4` yields IC50 of > 500 nM

Query `C[C@@H]1O[C@@H](n2c3ccccc3c3c4c(c5c6ccccc6[nH]c5c32)[C@H](O)NC4=O)[C@H](O)[C@H](O)[C@H]1O` yields IC50 of > 500 nM

Query `CO[C@@H]1[C@H](NC(C)=O)C[C@H]2O[C@]1(C)n1c3ccccc3c3c4c(c5c6ccccc6n2c5c31)C(=O)NC4` yields IC50 of 340 nM

Query `C[C@]12O[C@H](C[C@]1(O)C(=O)O)n1c3ccccc3c3c4c(c5c6ccccc6n2c5c31)CNC4=O` yields IC50 of > 500 nM

Query `CO[C@@H]1C(=O)C[C@H]2O[C@]1(C)n1c3ccccc3c3c4c(c5c6ccccc6n2c5c31)C(=O)NC4` yields IC50 of > 500 nM

###

Target: UniProtKB O75116
Note to self: IC50 under 300 nM means yes (1), ties and anything higher get no (0).

Does the reported IC50 of O=C1NCc2c1c1c3ccccc3[nH]c1c1[nH]c3ccccc3c21 [STAUROSPORINONE] stay below 300 nM?
no (0)

Does the reported IC50 of `O=C1NC(=O)c2c1c1c3ccccc3[nH]c1c1[nH]c3ccc(O)cc3c21` stay below 300 nM?
no (0)

Does the reported IC50 of `O=C1NCc2c1c1c3cccc(O)c3[nH]c1c1[nH]c3ccccc3c21` stay below 300 nM?
yes (1)

Does the reported IC50 of `C[C@H]1O[C@@H]2C[C@](O)([C@@H]1O)n1c3ccccc3c3c4c(c5c6ccccc6n2c5c31)C(=O)NC4` stay below 300 nM?
no (0)

Does the reported IC50 of `COc1ccc2[nH]c3c4[nH]c5ccccc5c4c4c(c3c2c1)C(=O)NC4=O` stay below 300 nM?
yes (1)

Does the reported IC50 of CN[C@@H]1C[C@H]2O[C@@](C)([C@@H]1OC)n1c3ccccc3c3c4c(c5c6ccccc6n2c5c31)C(=O)NC4=O (stereo in doubt; 15) stay below 300 nM?
yes (1)

Does the reported IC50 of COC1NC(=O)c2c1c1c3ccccc3[nH]c1c1[nH]c3ccccc3c21 (stereo not drawn) stay below 300 nM?
no (0)

Values from ChEMBL document CHEMBL5385876
